- assayTarget: T1, MprF protein of Staphylococcus aureus (Staphylococcus aureus, UniProt Q2G2M2 1-840)
- T1 construct: Presented on whole S. aureus cells (Protein A deletion mutant, delta spa; SA113 delta spa in the functional assays); also called MprF on S. aureus
- T1 sequence: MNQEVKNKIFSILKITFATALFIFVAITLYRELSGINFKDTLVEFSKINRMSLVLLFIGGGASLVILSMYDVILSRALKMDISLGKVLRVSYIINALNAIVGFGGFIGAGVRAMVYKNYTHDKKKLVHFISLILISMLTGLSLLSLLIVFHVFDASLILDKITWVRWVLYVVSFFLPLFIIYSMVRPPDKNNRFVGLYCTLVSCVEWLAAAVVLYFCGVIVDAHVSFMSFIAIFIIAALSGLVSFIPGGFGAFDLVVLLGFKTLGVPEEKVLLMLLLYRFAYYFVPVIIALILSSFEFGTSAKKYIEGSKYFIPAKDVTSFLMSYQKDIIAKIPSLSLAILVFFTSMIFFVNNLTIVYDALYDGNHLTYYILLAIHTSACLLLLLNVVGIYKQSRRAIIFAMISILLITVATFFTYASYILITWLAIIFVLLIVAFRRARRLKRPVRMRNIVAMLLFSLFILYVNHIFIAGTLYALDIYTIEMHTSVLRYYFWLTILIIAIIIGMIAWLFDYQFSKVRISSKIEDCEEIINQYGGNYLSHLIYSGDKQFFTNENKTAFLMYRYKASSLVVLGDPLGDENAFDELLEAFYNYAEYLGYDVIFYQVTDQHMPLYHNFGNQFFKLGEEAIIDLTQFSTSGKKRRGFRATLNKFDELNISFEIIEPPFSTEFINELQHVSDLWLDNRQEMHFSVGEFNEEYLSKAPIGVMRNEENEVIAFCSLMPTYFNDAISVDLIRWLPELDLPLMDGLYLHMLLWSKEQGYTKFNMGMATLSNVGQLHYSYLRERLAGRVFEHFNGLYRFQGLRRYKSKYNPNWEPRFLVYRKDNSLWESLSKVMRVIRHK
- methodNotes: whole cell ELISA on S. aureus; E. coli as negative control

>  <binder>
M-C6.1 (antibody, V domains shown, Framework VH1A kappa 1) VH: QVQLVQSGAEVKKPGSSVKVSCKASGGTFSIYAISWVRQAPGQGLEWMGGIIPEFGTANYAQKFQGRVTITADESTSTAYMELSSLRSEDTAVYYCARSQIYTLSYPKWFDFWGQGTLVTVSS VL: DIQMTQSPSSLSASVGDRVTITCRASQDISNYLNWYQQKPGKAPKLLIYDASNLQSGVPSRFSGSGSGTDFTLTISSLQPEDFATYYCLQYLQSPKTFGQGTKVEIKR

>  <binding result>
binds

$$$$
>  <binder>
M-C1 (antibody, V domains shown, Framework VH3-23 kappa 3) VH: EVQLLESGGGLVQPGGSLRLSCAASGFTFSSYAMNWVRQAPGKGLEWVSVISSDGSDTYYADSVKGRFTISRDNSKNTLYLQMNSLRAEDTAVYYCARESYYIGWDYWGQGTLVTVSS VL: DIVLTQSPATLSLSPGERATLSCRASQRVSSSFLAWYQQKPGQAPRLLIYLASNRATGIPARFSGSGSGTDFTLTISSLEPEDFAVYYCLQYGHYPPTFGQGTKVEIKR

>  <binding result>
binds

$$$$
>  <binder>
M-C4.3 (antibody, V domains shown, Framework VH1A kappa 1) VH: QVQLVQSGAEVKKPGSSVKVSCKASGGTFSDHTISWVRQAPGQGLEWMGGIIPIVGIANYAQKFQGRVTITADESTSTAYMELSSLRSEDTAVYYCAREYYVPDSGWFDYWGQGTLVTVSS VL: DIQMTQSPSSLSASVGDRVTITCRASQDISDYLVWYQQKPGKAPKLLIYDASNLQSGVPSRFSGSGSGTDFTLTISSLQPEDFATYYCQQYYHYRTFGQGTKVEIKR

>  <binding result>
binds

$$$$
